Target: PLK1 (Homo sapiens)
Construct: endogenous in cells; host or cells: HeLa
Sequence (P53350 whole entry): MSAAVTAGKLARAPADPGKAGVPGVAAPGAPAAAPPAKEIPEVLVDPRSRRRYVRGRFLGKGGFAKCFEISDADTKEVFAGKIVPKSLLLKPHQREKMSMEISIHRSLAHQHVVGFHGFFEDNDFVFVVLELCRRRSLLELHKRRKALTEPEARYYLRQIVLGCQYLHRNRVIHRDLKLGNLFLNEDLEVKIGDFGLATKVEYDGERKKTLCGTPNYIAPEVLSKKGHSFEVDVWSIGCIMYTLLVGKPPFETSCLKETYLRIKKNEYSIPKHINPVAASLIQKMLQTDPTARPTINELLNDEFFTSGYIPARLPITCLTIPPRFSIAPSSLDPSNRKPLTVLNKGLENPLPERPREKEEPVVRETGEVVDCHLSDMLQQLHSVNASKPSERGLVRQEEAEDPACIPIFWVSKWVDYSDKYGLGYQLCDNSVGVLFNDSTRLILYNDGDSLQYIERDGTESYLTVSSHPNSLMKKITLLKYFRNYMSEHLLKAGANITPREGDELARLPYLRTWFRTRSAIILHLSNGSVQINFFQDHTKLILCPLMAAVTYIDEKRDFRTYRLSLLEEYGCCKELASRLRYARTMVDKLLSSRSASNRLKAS
Assay: PLK1 protein degradation in HeLa cells, Western blotting (PLK1/GAPDH ratio)
Format: cell-based
Conditions: 6 hours compound incubation, measured only if the grade of Dmax is A or B
Observation type: DC50

INSERT INTO measurements (molecule, result) VALUES
  ('COc1cc(C(=O)N[C@H]2CCN(C(=O)CCCC(=O)N3CCN(c4cccc5c4C(=O)N(C4CCC(=O)NC4=O)C5=O)CC3)C2)c(F)cc1Nc1ncc2c(n1)N(C1CCCC1)CC(F)(F)C(=O)N2C (stereo partly drawn) [Compound 143]', '≤ 500 nM'),
  ('COc1cc(C(=O)NC2CCN(CC3CCN(c4ccc5c(c4)C(=O)N(C4CCC(=O)NC4=O)C5=O)CC3)CC2)c(F)cc1Nc1ncc2c(n1)N(C1CCCC1)CC(F)(F)C(=O)N2C (stereo not drawn) [Compound 67]', '≤ 500 nM'),
  ('COc1cc(C(=O)NC2CCN(CCOCCOCC#Cc3cccc4c3C(=O)N(C3CCC(=O)NC3=O)C4=O)CC2)c(F)cc1Nc1ncc2c(n1)N(C1CCCC1)CC(F)(F)C(=O)N2C (stereo not drawn) [Compound 54]', '≤ 500 nM'),
  ('CN1C(=O)C(F)(F)CN(C2CCCC2)c2nc(Nc3ccc(C(=O)N[C@H]4CCN(C(=O)CCC(=O)N5CCN(c6cccc7c6C(=O)N(C6CCC(=O)NC6=O)C7=O)CC5)C4)cc3)ncc21 (stereo partly drawn) [Compound 142]', '≤ 500 nM'),
  ('COc1cc(C(=O)NC2CCN(CCCCOCCCNc3cccc4c3C(=O)N(C3CCC(=O)NC3=O)C4=O)CC2)c(F)cc1Nc1ncc2c(n1)N(C1CCCC1)CC(F)(F)C(=O)N2C (stereo not drawn) [Compound 19]', '≤ 500 nM');

Inquiry: Bench note: what DC50 did COc1cc(C(=O)NC2CCN(CCOCCNc3cccc4c3C(=O)N(C3CCC(=O)NC3=O)C4=O)C2)c(F)cc1Nc1ncc2c(n1)N(C1CCCC1)CC(F)(F)C(=O)N2C (stereo not drawn) [Example 106] show?
Reply text: ≤ 500 nM

Inquiry: Bench note: what DC50 did COc1cc(C(=O)N[C@@H]2CCN(C(=O)CCN3CCN(c4cccc5c4C(=O)N(C4CCC(=O)NC4=O)C5=O)CC3)C2)c(F)cc1Nc1ncc2c(n1)N(C1CCCC1)CC(F)(F)C(=O)N2C (stereo partly drawn) [Compound 132] show?
Reply text: ≤ 50 nM

Inquiry: Bench note: what DC50 did COc1cc(C(=O)NC2CCN(Cc3cncc(CNC(=O)COc4cccc5c4C(=O)N(C4CCC(=O)NC4=O)C5=O)c3)CC2)c(F)cc1Nc1ncc2c(n1)N(C1CCCC1)CC(F)(F)C(=O)N2C (stereo not drawn) [Compound 62] show?
Reply text: ≤ 50 nM

Inquiry: Bench note: what DC50 did COc1cc(C(=O)NC2CCN(CCCCCCCCNc3cccc4nnn(C5CCC(=O)NC5=O)c(=O)c34)CC2)c(F)cc1Nc1ncc2c(n1)N(C1CCCC1)CC(F)(F)C(=O)N2C (stereo not drawn) [Compound 79] show?
Reply text: ≤ 50 nM

Inquiry: Bench note: what DC50 did COc1cc(C(=O)N[C@@H]2CCN(C(=O)CCCCN3CCN(c4cccc5c4C(=O)N(C4CCC(=O)NC4=O)C5=O)CC3)C2)c(F)cc1Nc1ncc2c(n1)N(C1CCCC1)CC(F)(F)C(=O)N2C (stereo partly drawn) [Compound 134] show?
Reply text: ≤ 50 nM

Inquiry: Bench note: what DC50 did COc1cc(C(=O)N[C@H]2CCN(C(=O)CCC(=O)N3CCN(c4ccc5c(c4)C(=O)N(C4CCC(=O)NC4=O)C5=O)CC3)C2)ccc1Nc1ncc2c(n1)N(C1CCCC1)CC(F)(F)C(=O)N2C (stereo partly drawn) [Compound 145] show?
Reply text: > 500 nM

Inquiry: Bench note: what DC50 did COc1cc(C(=O)N[C@@H]2CCN(C(=O)CCCN3CCN(c4cccc5c4C(=O)N(C4CCC(=O)NC4=O)C5=O)CC3)C2)c(F)cc1Nc1ncc2c(n1)N(C1CCCC1)CC(F)(F)C(=O)N2C (stereo partly drawn) [Compound 133] show?
Reply text: ≤ 50 nM

Inquiry: Bench note: what DC50 did COc1cc(C(=O)NC2CCN(C(=O)CN3CCN(c4ccc5c(c4)C(=O)N(C4CCC(=O)NC4=O)C5=O)CC3)CC2)c(F)cc1Nc1ncc2c(n1)N(C1CCCC1)CC(F)(F)C(=O)N2C (stereo not drawn) [Compound 73] show?
Reply text: ≤ 50 nM

Inquiry: Bench note: what DC50 did COc1cc(C(=O)NC2CCN(CCCCCNc3cccc4c3C(=O)N(C3CCC(=O)NC3=O)C4=O)CC2)c(F)cc1Nc1ncc2c(n1)N(C1CCCC1)CC(F)(F)C(=O)N2C (stereo not drawn) [Compound 9] show?
Reply text: ≤ 500 nM

Inquiry: Bench note: what DC50 did CN1C(=O)C(F)(F)CN(C2CCCC2)c2nc(Nc3ccc(C(=O)NC4CCN(CCOCCOCCNc5cccc6c5C(=O)N(C5CCC(=O)NC5=O)C6=O)CC4)cc3OCCO)ncc21 (stereo not drawn) [Example 98] show?
Reply text: ≤ 500 nM

Inquiry: Bench note: what DC50 did COc1cc(C(=O)NC2CCN(CCOCCOCCNc3cccc4c3C(=O)N(C3CCC(=O)NC3=O)C4=O)CC2)c(F)cc1Nc1ncc2c(n1)N(C(C)C)CC(F)(F)C(=O)N2C (stereo not drawn) [Example 100] show?
Reply text: ≤ 500 nM

Inquiry: Bench note: what DC50 did COc1cc(C(=O)N[C@H]2CCN(C(=O)CCCCCNc3cccc4c3C(=O)N(C3CCC(=O)NC3=O)C4=O)C2)c(F)cc1Nc1ncc2c(n1)N(C1CCCC1)CC(F)(F)C(=O)N2C (stereo partly drawn) [Compound 119] show?
Reply text: ≤ 50 nM

Inquiry: Bench note: what DC50 did COc1cc(C(=O)N[C@H]2CCN(C(=O)CN3CCN(c4ccc5c(c4)C(=O)N(C4CCC(=O)NC4=O)C5=O)CC3)C2)c(F)cc1Nc1ncc2c(n1)N(C1CCCC1)CC(F)(F)C(=O)N2C (stereo partly drawn) [Compound 135] show?
Reply text: ≤ 50 nM
